# tested_on: human orexin-1 receptor (Homo sapiens (Human), UniProt O43613)
# Sequence (O43613 whole entry): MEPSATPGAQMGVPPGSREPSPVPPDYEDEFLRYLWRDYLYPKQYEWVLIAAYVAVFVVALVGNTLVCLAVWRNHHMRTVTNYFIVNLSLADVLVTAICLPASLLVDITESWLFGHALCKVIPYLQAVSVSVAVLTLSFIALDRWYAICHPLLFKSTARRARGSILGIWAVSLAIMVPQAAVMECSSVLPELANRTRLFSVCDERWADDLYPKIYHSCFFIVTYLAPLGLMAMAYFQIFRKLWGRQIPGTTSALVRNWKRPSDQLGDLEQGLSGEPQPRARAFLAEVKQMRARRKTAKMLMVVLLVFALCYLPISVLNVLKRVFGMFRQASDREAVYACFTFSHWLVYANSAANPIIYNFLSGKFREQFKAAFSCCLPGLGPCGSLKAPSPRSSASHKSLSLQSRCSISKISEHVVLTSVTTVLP
# test_name: In vitro assay: intracellular calcium measurements (FLIPR), antagonistic activity
# measurement_parameters: CHO cells expressing human orexin-1 receptor, orexin-A agonist, geometric mean, read-out: IC50 Ox1
recorded_endpoint: IC50 (nM)

Below, 5 molecules whose answers are already recorded.
// query Find IC50 (human orexin-1 receptor (Homo sapiens (Human), UniProt O43613)) for the entry COc1cccc(-c2sc(C)nc2C(=O)N2CC[C@H](C)[C@H]2c2nc3c(Cl)cccc3[nH]2)c1 [Ex. 4.121]
// result 6

// query Find IC50 (human orexin-1 receptor (Homo sapiens (Human), UniProt O43613)) for the entry Cc1c(Cl)ccc2[nH]c([C@@H]3[C@@H](C)CCN3C(=O)c3c(F)cccc3-c3ncccn3)nc12 [Ex. 4.177]
// result 9

// query Find IC50 (human orexin-1 receptor (Homo sapiens (Human), UniProt O43613)) for the entry Cc1cc(C(=O)N2CCC[C@@]2(C)c2nc3cc(C)c(C)cc3[nH]2)c(-n2nccn2)cc1C [Ex. 5.58]
// result 3

// query Find IC50 (human orexin-1 receptor (Homo sapiens (Human), UniProt O43613)) for the entry Cc1c(Cl)ccc2[nH]c([C@]3(C)CCCN3C(=O)c3nc(-c4ccc(F)cc4)sc3-c3ccc(F)cc3)nc12 [Ex. 5.227]
// result 20

// query Find IC50 (human orexin-1 receptor (Homo sapiens (Human), UniProt O43613)) for the entry Cc1ccc(-c2cccnc2)c(C(=O)N2CC[C@H](C)[C@H]2c2nc3c(C)c(Cl)ccc3[nH]2)c1F [Ex. 4.173]
// result 13

1. Cc1nc(C(=O)N2CCCC2c2nc3cc(Cl)c(C)cc3[nH]2)c(-c2ccccc2)s1 (stereo not drawn) [Ex. 1.126]
2. CO[C@H]1C[C@@H](c2nc3ccc(Cl)c(C)c3[nH]2)N(C(=O)c2cc(C)ccc2-n2nccn2)C1 [Example 3.1]
// query For the pair 1 and 2 , which member has the lower IC50 number? Lab log: write the label of the selected item as the result.
// result 1
(1: 18 nM, 2: 102 nM)

a. C=C1C[C@@H](c2nc3cc(OC)ccc3[nH]2)N(C(=O)c2ccccc2-n2nccn2)C1 [Ex. 6.13]
b. Cc1ccc(C(=O)N2CC[C@H](C)[C@H]2c2nc3cc(Cl)c(C)cc3[nH]2)c(-c2cccnc2)c1 [Ex. 4.110]
c. C=C1CC(c2nc3c(C)cccc3[nH]2)N(C(=O)c2nc(C3CC3)sc2-c2cccc(C)c2)C1 (stereo not drawn) [Ex. 6.94]
d. COc1cccc(-c2ccc(C)cc2C(=O)N2CCC[C@@]2(C)c2nc3cc(C)c(C)cc3n2CC2CC2)c1 [Ex. 7.49]
// query Rank the 4 molecules: largest IC50 first, smallest last. Put the labels in the requested order and list them out.
// result a, d, b, c

a. Cc1ccc(-c2ccc(F)cc2)c(C(=O)N2CCC[C@@]2(C)c2nc3cc(C)c(C)cc3n2C)c1 [Ex. 7.15]
b. COCCn1c([C@]2(C)CCCN2C(=O)c2cc(C)ccc2-c2ccc(C)cc2)nc2cc(C)c(C)cc21 [Ex. 7.41]
c. Cc1nc(C(=O)N2CC[C@H](C)[C@H]2c2nc3c(C)c(C)ccc3[nH]2)c(-c2cccc(Cl)c2)s1 [Ex. 4.24]
d. CO[C@H]1C[C@@H](c2nc3c(C)cccc3[nH]2)N(C(=O)c2nc(C)sc2-c2ccccc2)C1 [Ex. 3.3]
e. Cc1nc(C(=O)N2CCC[C@H]2c2nc3cc(Cl)c(C(F)(F)F)cc3[nH]2)c(-c2ccccc2)s1 [Ex. 1.146]
// query Let's sort these by IC50, smallest first. Go ahead? Put the labels in the requested order and list them out.
// result c, e, a, b, d

a. C=C1C[C@@H](c2nc3cc(Cl)c(C(F)(F)F)cc3[nH]2)N(C(=O)c2nc(C)ccc2-n2nccn2)C1 [Ex. 6.190]
b. Cc1cccc(-c2ccccc2C(=O)N2CCC[C@@]2(C)c2nc3c(C)c(C)ccc3[nH]2)c1 [Ex. 5.118]
c. CSc1cccc2nc([C@@H]3CCCN3C(=O)c3cnc(C)nc3-c3ccc(F)cc3)[nH]c12 [Ex. 1.80]
// query Rank the 3 molecules: largest IC50 first, smallest last. Put the labels in the requested order and list them out.
// result c, b, a
(c: 41 nM, b: 25 nM, a: 10 nM)

A. COc1ccc(-c2sc(C)nc2C(=O)N2C[C@H](OC)C[C@H]2c2nc3ccc(Cl)c(C)c3[nH]2)cc1 [Ex. 3.37]
B. CSc1cccc2nc([C@@H]3CCCN3C(=O)c3cnc(C)nc3-c3cccc(Cl)c3)[nH]c12 [Ex. 1.81]
// query For the pair A and B , which member has the lower IC50 number? Lab log: write the label of the selected item as the result.
// result A

1. CO[C@@H]1C[C@@H](c2nc3ccc(Cl)c(C)c3[nH]2)N(C(=O)c2ccccc2-c2ccc(F)c(C)c2)C1 [Ex. 3.40]
2. CO[C@@H]1C[C@@H](c2nc3c(C)c(Cl)ccc3[nH]2)N(C(=O)c2nc(C)sc2-c2ccccc2)C1 [Ex. 3.6]
// query Recorded IC50 values differ for 1 and 2 ; which one is higher? Lab log: write the label of the selected item as the result.
// result 1

P. Cc1ccc(-c2ccccc2)c(C(=O)N2CC[C@H](C)[C@H]2c2nc3cc(Cl)c(C)cc3[nH]2)c1 [Ex. 4.116]
Q. CSc1cccc2nc([C@@H]3CCCN3C(=O)c3cc(F)ccc3-n3nccn3)[nH]c12 [Ex. 1.163]
// query For the pair P and Q , which member has the lower IC50 number? Lab log: write the label of the selected item as the result.
// result P

I. C=C1C[C@@H](c2nc3cc(C)c(C)cc3[nH]2)N(C(=O)c2cc(OC)c(OC)cc2-n2nccn2)C1 [Ex. 6.200]
II. Cc1cc(C(=O)N2CCC[C@@]2(C)c2nc3cc(C(F)(F)F)ccc3[nH]2)c(-n2nccn2)cc1C [Ex. 5.170]
III. Cc1ccc(-n2nccn2)c(C(=O)N2CC[C@H](C)[C@H]2c2nc3c(C)c(Cl)ccc3[nH]2)c1 [Ex. 4.35]
// query Rank the 3 molecules: largest IC50 first, smallest last. Put the labels in the requested order and list them out.
// result I, III, II
(I: 58 nM, III: 3 nM, II: 2 nM)

###

# tested_on: human orexin-1 receptor (Homo sapiens (Human))
# test_name: In vitro assay: intracellular calcium measurements (FLIPR), antagonistic activity
# measurement_parameters: CHO cells expressing human orexin-1 receptor, orexin-A agonist, geometric mean, read-out: IC50 Ox1
recorded_endpoint: IC50 (nM)

Below, 2 compounds whose answers are already recorded.
// query Consider the compound shown here: Cc1nc(C(=O)N2CCC[C@@]2(C)c2nc3c(C)cccc3[nH]2)c(-c2cccc(Cl)c2)s1 What is its recorded IC50?
// result 10

// query Consider the compound shown here: Cc1nc(C(=O)N2C[C@H](F)C[C@H]2c2nc3c(C)cccc3[nH]2)c(-c2cccc(Cl)c2)s1 What is its recorded IC50?
// result 17

P. COc1ccc(-c2ccc(C(F)(F)F)cc2)c(C(=O)N2CCC[C@@]2(C)c2nc3ccc(Cl)c(C)c3[nH]2)c1F
Q. Cc1ccc(-n2nccn2)c(C(=O)N2CCC[C@@]2(C)c2nc3cc(C(C)(C)C)ccc3[nH]2)c1
// query For the pair P and Q , which member has the lower IC50 number? Lab log: write the label of the selected item as the result.
// result Q
(Q: 6 nM, P: 35 nM)

###

# tested_on: human orexin-2 receptor (Homo sapiens (Human), UniProt O43614)
# Sequence (O43614 whole entry): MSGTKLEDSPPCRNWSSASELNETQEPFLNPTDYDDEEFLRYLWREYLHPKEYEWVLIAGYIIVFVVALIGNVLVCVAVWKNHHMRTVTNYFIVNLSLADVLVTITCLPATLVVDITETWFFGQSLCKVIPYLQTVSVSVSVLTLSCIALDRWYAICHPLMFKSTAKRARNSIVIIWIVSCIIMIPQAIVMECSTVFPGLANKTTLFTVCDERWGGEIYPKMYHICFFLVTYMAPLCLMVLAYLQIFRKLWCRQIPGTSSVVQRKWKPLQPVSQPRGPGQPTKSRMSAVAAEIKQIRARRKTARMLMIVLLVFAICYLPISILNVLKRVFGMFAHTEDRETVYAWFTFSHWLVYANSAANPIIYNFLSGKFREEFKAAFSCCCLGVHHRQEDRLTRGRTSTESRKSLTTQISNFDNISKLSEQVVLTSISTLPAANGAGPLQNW
# test_name: In vitro assay: intracellular calcium measurements (FLIPR), antagonistic activity
# measurement_parameters: CHO cells expressing human orexin-2 receptor, orexin-A agonist, geometric mean, read-out: IC50 Ox2
pIC50: −log10 of the molar value.
recorded_endpoint: pIC50

// query Consider the compound shown here: CO[C@H]1CN(C(=O)c2nc(C)sc2-c2cccc(Cl)c2)C(C)(c2nc3c(C)cccc3[nH]2)C1 (stereo partly drawn) What is its recorded pIC50?
// result 7.72

A. Cc1ccc(C(=O)N2CC[C@H](C)[C@H]2c2nc3c(C)c(Cl)ccc3[nH]2)c(-c2ccccn2)c1
B. Cc1nc(C(=O)N2C[C@@H](F)C[C@H]2c2nc3c(C)cccc3[nH]2)c(-c2ccccc2)s1
C. Cc1ccc(-c2nc(C(=O)N3CCC[C@@]3(C)c3nc4c(C)c(Cl)ccc4[nH]3)c(-c3ccc(F)cc3)s2)cc1Cl
D. C=C1CC(c2nc3c(C)cccc3[nH]2)N(C(=O)c2cc(C)sc2-c2ccc(C)c(C)c2)C1 (stereo not drawn)
E. Cc1ccc(-c2ccc(C(F)(F)F)cc2)c(C(=O)N2CCC[C@@]2(C)c2nc3cc(C(F)(F)F)ccc3[nH]2)c1
// query Let's sort these by pIC50, smallest first. Go ahead? Put the labels in the requested order and list them out.
// result C, E, B, A, D

The values you see were collected from patent US9732075B2.
